Target: CgDHFR (Candida glabrata (strain ATCC 2001 / BCRC 20586 / JCM 3761 / NBRC 0622 / NRRL Y-65 / CBS 138) (Yeast) (Nakaseomyces glabratus))
Sequence (Q6FPH0 1-217): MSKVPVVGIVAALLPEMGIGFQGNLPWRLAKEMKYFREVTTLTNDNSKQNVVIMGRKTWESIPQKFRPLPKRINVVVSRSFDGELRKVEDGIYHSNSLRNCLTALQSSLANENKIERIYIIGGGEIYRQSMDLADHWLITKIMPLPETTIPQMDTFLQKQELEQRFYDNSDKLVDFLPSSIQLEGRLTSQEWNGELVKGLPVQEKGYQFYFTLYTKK
Experiment: biochemical
Conditions: Table 7; read-out: IC50 (CgDHFR)
Description: CgDHFR: The gene coding CgDHFR was amplified by PCR from C. glabrata genomic DNA obtained from ATCC. The gene was inserted in a pET41 vector that includes a C-terminal histidine tag for nickel affinity chromatography. […] Enzyme and inhibitor were allowed to incubate for 5 min before adding dihydrofolate to initiate the reaction. […] IC50 values and their standard deviations were calculated in the presence of varying concentrations of inhibitor near the IC50 concentration.
MEASURED_ATTRIBUTE: log10 of IC50 (log10 of the value in nM)
// do not treat as linear: log10 of IC50, unit nM

Query: What log10 of IC50 value was documented for this molecule, COc1cc(C(C)C#Cc2c(C)nc(N)nc2N)cc(N2CCOCC2)c1 (stereo not drawn) ?
Reply: 1.30

Query: How about this molecule: COc1cc(C(C)C#Cc2c(C)nc(N)nc2N)cc(N2CCNCC2)c1 (stereo not drawn)
Reply: 2.16

Query: How about this molecule: "COc1cc(-c2ccc(C)cc2)cc([C@@H](C)C#Cc2c(C)nc(N)nc2N)c1"
Reply: -0.22

Query: How about this molecule: COc1cc(C(C)C#Cc2c(C)nc(N)nc2N)cc(N2CCN(C)CC2)c1 (stereo not drawn)
Reply: 1.48

Query: How about this molecule: COc1cc(C(C)C#Cc2c(C)nc(N)nc2N)cc(N2C[C@@H](C)O[C@@H](C)C2)c1 (mixture of isomers)
Reply: 1.83

Query: How about this molecule: CCc1nc(N)nc(N)c1C#CC(C)c1cc(OC)cc(N2CCOCC2)c1 (stereo not drawn)
Reply: 1.34
